experiment: Half life in Sprague-Dawley rat at 0.6 mg/kg, iv; assay type: ADME, organism-based; conditions: in vivo
measurement-name: half-life (min)

I = C[C@@H]1Cc2nn3c(c2CN1C(=O)Nc1ccc(F)c(C#N)c1)C(=O)N(C)O[C@@H](CO)C3
II = C[C@@H]1Cc2nn3c(c2CN1C(=O)Nc1ccc(F)c(C(F)(F)F)c1)C(=O)N(C)O[C@@H](CO)C3
Field: lower half-life | Options: I / II Respond using the label that marks the chosen record.
I
(I: 30 min, II: 84 min)

###

test: Oral bioavailability in Sprague-Dawley rat at 5 mg/kg; format: ADME, organism-based; conditions: in vivo
bioavailability by entry:
Kindly provide the numeric value in % only, without the unit symbol.

| mol-smiles | units | bioavailability |
| --- | --- | --- |
| C[C@@H]1Cc2nn3c(c2CN1C(=O)Nc1ccc(F)c(C#N)c1)C(=O)N(C)O[C@@H](CF)C3 | % | 7.4 |

Shift focus to the following entry.
In one line, give reported bioavailability of the entry C[C@@H]1Cc2nn3c(c2CN1C(=O)Nc1ccc(F)c(C#N)c1)C(=O)N(C)O[C@@H](COCC(F)F)C3 .
71
